# Test system: 616215-338-R-J1-PDC tumor spheroids, viability
# Assay protocol: Anticancer human tumor 616215-338-R-J1-PDC patient-derived colon adenocarcinoma cell line growth inhibition [GQUAD]
# Measurement conditions: second compound 10 µM; first compound 0.0316 µM; active compounds read low; spheroids with HUVEC and MSC
Property measured: viability, T/C (%)
Only the number, expressed in %, is required.

Recorded results for 4 molecules are shown here.
# Molecule, viability, T/C (%)
data = [
    ("COc1ccc([C@@H](O)c2cc(-c3ncnc4cc(N5CCOCC5)ccc34)c(F)cc2Cl)nn1 + Cc1cnc(CNC(=O)c2c(=O)c3ccc(N4CCCN(C)CC4)nc3n3c2sc2ccccc23)cn1", 33.8),
    ("CC1COCCN1c1cc(-c2ccnn2C)c2ccnc(-c3ccn[nH]3)c2n1 (stereo not given) + CN(C)c1ccc(Nc2c3ccc(NC(=O)CCN4CCCC4)cc3nc3cc(NC(=O)CCN4CCCC4)ccc23)cc1", 88.4),
    ("C=CCn1c(=O)c2cnc(Nc3ccc(N4CCN(C)CC4)cc3)nc2n1-c1cccc(C(C)(C)O)n1 + CN(C)c1ccc(Nc2c3ccc(NC(=O)CCN4CCCC4)cc3nc3cc(NC(=O)CCN4CCCC4)ccc23)cc1", 87.9),
    ("COc1cccc2c1C(=O)c1c(O)c3c(c(O)c1C2=O)CC(O)(C(=O)CO)CC3OC1CC(N)C(O)C(C)O1 (stereo not given) + Cc1[nH]c2ccc(F)cc2c1-c1nc2c3cccnc3c3ncccc3c2[nH]1", 103),
]

# next molecule below
Request: Item C=CCn1c(=O)c2cnc(Nc3ccc(N4CCN(C)CC4)cc3)nc2n1-c1cccc(C(C)(C)O)n1 + Cc1cnc(CNC(=O)c2c(=O)c3ccc(N4CCCN(C)CC4)nc3n3c2sc2ccccc23)cn1 has what recorded viability, T/C?
Result: 25.1

---

# System: 616215-338-R-J1-PDC tumor spheroids, viability
# Assay protocol: Anticancer human tumor 616215-338-R-J1-PDC cell line growth inhibition [GQUAD];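 note: spheroids exposed to agents for 7 days before readout; percent viability relative to DMSO vehicle control wells taken as 100%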
# Measurement conditions: second compound 3.16 µM; first compound 0.00999 µM; active compounds read low; spheroids with HUVEC and MSC
Please use T for viability, T/C under 90% and F for everything else, ties included.

Examples from the recorded data:
# Compound, Category label
rows = [
    ("Cn1ncnc1[C@H]1c2n[nH]c(=O)c3cc(F)cc(c23)N[C@@H]1c1ccc(F)cc1 + Cc1cnc(CNC(=O)c2c(=O)c3ccc(N4CCCN(C)CC4)nc3n3c2sc2ccccc23)cn1", "T"),
    ("Cn1ncnc1[C@H]1c2n[nH]c(=O)c3cc(F)cc(c23)N[C@@H]1c1ccc(F)cc1 + Cc1[nH]c2ccc(F)cc2c1-c1nc2c3cccnc3c3ncccc3c2[nH]1", "T"),
]

Request: Confirm or reject: viability, T/C of Cn1ncnc1[C@H]1c2n[nH]c(=O)c3cc(F)cc(c23)N[C@@H]1c1ccc(F)cc1 + CN(C)c1ccc(Nc2c3ccc(NC(=O)CCN4CCCC4)cc3nc3cc(NC(=O)CCN4CCCC4)ccc23)cc1 lies strictly below 90%
Result: F

Request: Another compound: CC[C@@]1(O)C(=O)OCc2c1cc1n(c2=O)Cc2cc3c(CN(C)C)c(O)ccc3nc2-1 + CN(C)c1ccc(Nc2c3ccc(NC(=O)CCN4CCCC4)cc3nc3cc(NC(=O)CCN4CCCC4)ccc23)cc1
Result: F

Attribution: PubChem BioAssay AID2060493
